- Test Description: Cytotoxicity activity against human HepG2 cells assessed by CellTiter-Glo luminescent cell viability assay.
- Format: toxicity, cell-based
- Set-up: assay stage confirmatory assay, source tissue liver
- Condition Set: HepG2 cells, read-out: IC50 relative
Calls of active or inactive are those of the source. How the calls were made is not given here.
Measured Attribute: CC50

Please state CC50 for every compound in the list that follows.
1. CCCc1nnsc1C(=O)Nc1nc2ccccc2[nH]1
2. COc1ccc([C@@H]2CCCN2c2cnn(C(C)(C)C)c(=O)c2Cl)cc1
3. C[C@@H](NC1CCN(c2ccc(F)c(F)c2)CC1)[C@@H](O)c1ccc(O)cc1
4. CCOc1ccc(NC(=O)c2nc(S(C)(=O)=O)ncc2Br)cc1
5. Cc1cc(C)cc(C(=O)N2CCN(c3cc(=O)n(C(C)C)c(=O)n3C(C)C)CC2)c1

["19 µM (inactive)", "11.1 µM (active)", "14.6 µM (active)", "1.6 µM (active)", "3.5 µM (active)"]

###

- Test Description: Cytotoxicity activity against human HepG2 cells assessed by CellTiter-Glo luminescent cell viability assay.
- Assay type: toxicity, cell-based
- Parameters: assay stage confirmatory assay, source tissue liver
- Condition Set: HepG2 cells, read-out: IC50 relative
Calls of active or inactive are those of the source. The rule behind the calls is not given here. Residues, ends and D or L forms follow the SMILES beside them. *: point of attachment. Cbz = O=C(OCc1ccccc1)*
Can you answer with just one of these options? active, inactive

COCCN1CCCC(CNC2CCN(c3ccccc3Cl)CC2)C1 (stereo not given)    active

Fill in: this test's call for Cc1noc2ncnc(N3CCC(C(=O)N4CCc5ccccc54)CC3)c12 is ___ active

Note, next up: CC[C@@H]1C(=O)N(C)c2cnc(Nc3ccc(C(=O)NC4CCN(C)CC4)cc3OC)nc2N1C1CCCC1 [BI-2536] active

Note, next up: N#CCCn1c(=O)c(C(=O)NCCCc2ccccc2)c(O)c2ccccc21 active

Note, next up: CC(C)C[C@@H](C=O)NC(=O)[C@H](CC(C)C)NC(=O)[C@H](CC(C)C)NC(=O)OCc1ccccc1 [MG-132] (Cbz-Leu-Leu-Leu-aldehyde) active

Note, next up: N#Cc1ccc(COC[C@H]2O[C@@H](n3c(NCc4ccc(Cl)c(Cl)c4)nc4c(N)ncnc43)[C@H](O)[C@@H]2O)cc1 active

Note, next up: CN1CCN(c2ccc3nc(-c4c(N)c5c(F)cccc5[nH]c4=O)[nH]c3c2)CC1 [DOVITINIB] active

Note, next up: CCOc1ccc(NC(=O)CNC[C@H]2CCCO2)cc1C inactive

Note, next up: CC(C)Oc1cc(O)c2c(=O)c(-c3ccc(O)cc3)coc2c1 active

Note, next up: CC(C)Cn1c(=O)c2sccc2n2c(=O)n(CC(=O)Nc3ccc(F)cc3)nc12 inactive

###

- Test Description: Cytotoxicity activity against human HepG2 cells assessed by CellTiter-Glo luminescent cell viability assay.
- Format: toxicity, cell-based
- Set-up: assay stage confirmatory assay, source tissue liver
- Condition Set: HepG2 cells, read-out: IC50 relative
Calls of active or inactive are those of the source. How the calls were made is not given here.
Can you answer with just one of these options? active, inactive

CC1CCN(CC(O)COc2ccccc2C(C)(C)C)CC1 (centres undefined)    active
CCN1CCN(c2cc3c(cc2S(=O)(=O)N2CCCCCC2)C(=O)Nc2ccccc2O3)CC1    active
Cc1cc([C@H]2CCCN(CC(=O)Nc3nccs3)C2)n[nH]1    inactive
CN1CCN(Cc2ccc(NC(=O)c3n[nH]cc3Nc3ncnc4[nH]ccc34)cc2)CC1    active
COc1cc2nccc(Oc3ccc(NC(=O)Nc4cc(C)on4)c(Cl)c3)c2cc1OC    active
CC(C)(C)NC(=O)[C@@H]1C[C@@H]2CCCC[C@@H]2CN1CC(O)[C@H](Cc1ccccc1)NC(=O)[C@@H](CC(N)=O)NC(=O)c1ccc2ccccc2n1 (some centres undefined)    inactive

Fill in: this test's call for CCC1=NNc2cccc3c(OC)ccc1c23 is ___ active

Note, next up: COc1cc2c(cc1-c1c(C)noc1C)ncc1[nH]c(=O)n([C@H](C)c3ccccn3)c12 active

Note, next up: Cc1cc(C)cc(OC[C@@H](O)CN2CCC(C(=O)Nc3ccccc3)CC2)c1 active
